Test system: A549 cells
Test: Cell viability assay (XTT assay), A549
Type: cell-based
Conditions: Homo sapiens, 72 hrs
Experimental: Next day compounds were added to cells and incubated for 72 hrs. Compound treatment was done in triplicates. After 72 hrs cell culture media was aspirated from the wells and XTT working solution was added and plates were incubated for 2-5 hrs. […] EC50 values were calculated using Graphpad Prism. Tumor cell lines used in the examples of the present invention were procured from ATCC. Description of the cell lines is included in the following table: […]
REPORTED PROPERTY: EC50 (nM)
Answers are plain numbers, in nM.

Example results:
[
  {
    "COMPOUND": "Cc1ccc(NC(=O)c2cccc(C(F)(F)F)c2)cc1N1CCc2nc(Nc3ccc(OCCCN4CCOCC4)cc3)ncc2C1=O",
    "EC50 [nM]": 1080
  },
  {
    "COMPOUND": "Cc1ccc(NC(=O)c2cccc(C(F)(F)F)c2)cc1N1CCc2nc(Nc3ccc(OCCCN4CCN(C)CC4)cc3)ncc2C1=O",
    "EC50 [nM]": 1480
  },
  {
    "COMPOUND": "Cc1ccc(NC(=O)c2cccc(C(F)(F)F)c2)cc1N1CCc2nc(Nc3ccc(C(=O)NC4CC4)nc3)ncc2C1",
    "EC50 [nM]": 25
  }
]

Quick one: give me EC50 for each item below, same order please.
1. Cc1cnc(Nc2ccc(OCCN3CCCC3)cc2)nc1Nc1cccc(S(=O)(=O)NC(C)(C)C)c1 [TG101348, reference compound]
2. Cc1ccc(NC(=O)c2cccc(C(F)(F)F)c2)cc1N1CCc2nc(Nc3cccc(CN4CCN(C)CC4)c3)ncc2C1

1200
426

Quick one: give me EC50 for each item below, same order please.
1. Cc1cc(Nc2ncc3c(n2)CCN(c2cc(NC(=O)c4cccc(C(F)(F)F)c4)ccc2Cl)C3=O)ccc1N1CCN(C)CC1
2. Cc1ccc(NC(=O)c2cccc(C(F)(F)F)c2)cc1N1CCc2nc(Nc3ccc(C(=O)N4CCN(C)CC4)cc3)ncc2C1

1. 2100
2. 10
